test.method.notes: in vitro
assay.conditions: dog, MDCK, pH 7.4
Positions of bridges follow the written chain, without caps; N, C: chain ends. Non-standard residues stand in square brackets, D forms with d. Residues, ends and D or L forms follow the SMILES beside them. Cha = N[C@@H](CC1CCCCC1)C(=O)O; NMeNva = CCC[C@H](NC)C(=O)O; NMeAbu = CC[C@H](NC)C(=O)O; NMeC = CN[C@@H](CS)C(=O)O; NMeA = CN[C@@H](C)C(=O)O; Nva = CCC[C@H](N)C(=O)O; Abu = CC[C@H](N)C(=O)O; NEtG = CCNCC(=O)O
Listed here are compounds together with their documented Papp A→B at 3 h, 10 µM.
Express the result in ×10⁻⁶ cm/s but write the number alone.

Known results for compounds:
- compound: "CCC[C@H]1C(=O)N[C@@H](CC)C(=O)N(C)[C@@H](C)C(=O)N[C@@H](CC(C)C)C(=O)N(C)[C@H](C(=O)OCC)CSCC(=O)N[C@@H](CC(C)C)C(=O)N(C)[C@@H](C)C(=O)N[C@@H](CC(C)C)C(=O)N2CCC[C@@H]2C(=O)N1C [LC04] ({CH2CO}-L[NMeA]L[dP][NMeNva][Abu][NMeA]L[NMeC]-OEt; thioether N-9)"
  Papp A→B at 3 h, 10 µM / ×10⁻⁶ cm/s: 6.5
- compound: "CCC[C@@H]1NC(=O)CN(CC)C(=O)[C@H](CC(C)C)NC(=O)CSC[C@@H](C(=O)OCC)N(C)C(=O)[C@H](CC(C)C)NC(=O)[C@H](C)N(C)C(=O)[C@H](CC2CCCCC2)NC(=O)[C@H](C)N(C)C(=O)[C@H]2CCCN2C1=O [LB09] ({CH2CO}-L[NEtG][Nva][dP][NMeA][Cha][NMeA]L[NMeC]-OEt; thioether N-9)"
  Papp A→B at 3 h, 10 µM / ×10⁻⁶ cm/s: 4.4
- compound: "CCC[C@@H]1NC(=O)[C@H](C)N(C)C(=O)[C@H](CC(C)C)NC(=O)CSC[C@@H](C(=O)OCC)N(C)C(=O)[C@H](CC(C)C)NC(=O)[C@H](C)N(C)C(=O)[C@H](CC2CCCCC2)NC(=O)[C@H](CC)N(C)C(=O)[C@H]2CCCN2C1=O [LC09] ({CH2CO}-L[NMeA][Nva][dP][NMeAbu][Cha][NMeA]L[NMeC]-OEt; thioether N-9)"
  Papp A→B at 3 h, 10 µM / ×10⁻⁶ cm/s: 1.8

Please examine the following record next.
Inquiry: # get_value(readout='Papp A→B at 3 h, 10 µM', item= CCOC(=O)[C@@H]1CSCC(=O)N[C@@H](CC(C)C)C(=O)N(CC)CC(=O)N[C@@H](CC(C)C)C(=O)N2CCC[C@@H]2C(=O)N(C)[C@@H](C)C(=O)N[C@@H](CC)C(=O)N(C)[C@@H](C)C(=O)N[C@@H](CC(C)C)C(=O)N1C [LB02] ({CH2CO}-L[NEtG]L[dP][NMeA][Abu][NMeA]L[NMeC]-OEt; thioether N-9) )
Reply text: 1.8
